system: Sphingosine 1-phosphate receptor 1 (Homo sapiens)
Sequence (P21453 whole entry): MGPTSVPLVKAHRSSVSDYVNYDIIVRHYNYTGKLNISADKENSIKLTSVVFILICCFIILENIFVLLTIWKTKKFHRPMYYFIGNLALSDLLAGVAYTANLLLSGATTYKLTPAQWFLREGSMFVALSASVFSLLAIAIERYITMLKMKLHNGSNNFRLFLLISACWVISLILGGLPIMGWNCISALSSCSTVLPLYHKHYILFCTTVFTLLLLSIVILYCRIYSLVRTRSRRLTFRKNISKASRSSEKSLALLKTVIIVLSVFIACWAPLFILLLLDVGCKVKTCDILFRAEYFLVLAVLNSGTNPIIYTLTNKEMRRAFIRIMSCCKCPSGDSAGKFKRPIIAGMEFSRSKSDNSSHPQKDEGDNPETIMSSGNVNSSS
test_method_notes: direct activation of human S1P1 – cell-based, agonist mode, 60K MLSMR set, dose response (AID 468)
Assign EC50 to each entry below.
State just the number; it will be interpreted in µM.

Challenge: For the compound shown here, Cc1oc(-c2ccccc2)nc1Cn1cccc1C1=NC(c2ccccc2)CO1 (stereo unspecified) [SMR000026251] , give the reported EC50.
Response given: 0.922

Challenge: For the compound shown here, COC(=O)c1sc(NC(=O)c2ccc(OC)cc2OC)nc1C , give the reported EC50.
Response given: 9.63

Challenge: For the compound shown here, CCOC(=O)c1cnc(-n2nc(C)cc2C)nc1NC1CCCCC1 , give the reported EC50.
Response given: 6.37

Challenge: For the compound shown here, Cc1ccnc(SCC(=O)Nc2sc3c(c2C#N)CCCC3)n1 [MLS000077260] , give the reported EC50.
Response given: 4.76

Challenge: For the compound shown here, CCOc1ccc(-c2nc(-c3ccncc3)no2)cc1OCC , give the reported EC50.
Response given: 0.207

Challenge: For the compound shown here, Cc1csc(SCC(=O)c2cc(C)n(Cc3cccs3)c2C)n1 , give the reported EC50.
Response given: 6.76

Challenge: For the compound shown here, O=C(Nc1ccc(S(=O)(=O)NCc2ccco2)cc1)c1ccc2ccccc2n1 [MLS000098663] , give the reported EC50.
Response given: 8.51

Challenge: For the compound shown here, Cc1ccc2[nH]c3c(NCc4ccco4)ncnc3c2c1 [MLS000040855] , give the reported EC50.
Response given: 9.9

Challenge: For the compound shown here, CCn1c(SCC(=O)Nc2nc3ccc(C)cc3s2)nc2c(c1=O)SC(C)C2 (stereo unspecified) , give the reported EC50.
Response given: 5.59

---

system: Sphingosine 1-phosphate receptor 1 (Homo sapiens)
test_method_notes: direct activation of human S1P1 – cell-based, agonist mode, 60K MLSMR set, dose response (AID 468)
settings: inactive by the depositor's call
Assign pEC50 to each entry below.
Please express pEC50 as -log10 of the molar concentration.

Challenge: For the molecule shown here, COc1ccc2c(c1)-c1nc(NC(=O)c3cccs3)sc1CC2 , give the reported pEC50.
Response given: 4.76

Challenge: For the molecule shown here, Cc1ccc(-n2ncc3c(N4CCCC(C)C4)ncnc32)c(C)c1 (stereo not given) , give the reported pEC50.
Response given: 4.96

Challenge: For the molecule shown here, CCCCCn1c(=O)c(C(=O)NCc2ccncc2)c(O)c2ccccc21 , give the reported pEC50.
Response given: 4.70

Challenge: For the molecule shown here, CCCC(=O)Nc1ccc(-c2nc3cc(C)c(C)cc3o2)cc1 [MLS000089940] , give the reported pEC50.
Response given: 4.99

Challenge: For the molecule shown here, CCCOc1ccc(S(=O)(=O)NCc2ccc(OC)cc2)cc1 [MLS000104592] , give the reported pEC50.
Response given: 4.64

Challenge: For the molecule shown here, COc1ccc(OCCCSc2ncccn2)cc1 , give the reported pEC50.
Response given: 4.24

Challenge: For the molecule shown here, CSc1ccc(S(=O)(=O)Nc2ccc3c(c2)OCCO3)cc1 [MLS000115922] , give the reported pEC50.
Response given: 4.87

Challenge: For the molecule shown here, COc1cccc(-c2nnc3sc(C4CCCCC4)nn23)c1 , give the reported pEC50.
Response given: 4.76

Challenge: For the molecule shown here, COc1ccc(OC)c(-c2cc(C(=O)Nc3c(C)nn(Cc4ccc(Cl)cc4)c3C)no2)c1 [MLS000087191] , give the reported pEC50.
Response given: 4.68

Challenge: For the molecule shown here, COc1cccc(-c2nc(-c3ccc(NC(=O)c4cccnc4)cc3)no2)c1 [MLS000047254] , give the reported pEC50.
Response given: 4.58
